- ASSAY: Acid dissociation constant pKa
- Type: physicochemical
- TEST CONDITIONS: pKa, mean measured, WG; monoprotic base
QUANTITY MEASURED: pKa
Answers are plain numbers.

Short answer for CC(O)C(C)n1ncn(-c2ccc(N3CCN(c4ccc(OCC5COC(Cn6cncn6)(c6ccc(Cl)cc6Cl)O5)cc4)CC3)cc2)c1=O (stereo not shown) [OH-ITZ, hydroxyitraconazole] : pKa was 4

====

For each of the compounds below, state its logP.
- ASSAY: Octanol-water partition coefficient logP / logD
- Type: physicochemical
One number for each entry.

Provide logP for all items below, preserving their order.
1. CCC(C)n1ncn(-c2ccc(N3CCN(c4ccc(OCC5COC(Cn6cncn6)(c6ccc(Cl)cc6Cl)O5)cc4)CC3)cc2)c1=O (centres unmarked)
2. CC(O)C(C)n1ncn(-c2ccc(N3CCN(c4ccc(OCC5COC(Cn6cncn6)(c6ccc(Cl)cc6Cl)O5)cc4)CC3)cc2)c1=O (centres unmarked) [OH-ITZ, hydroxyitraconazole]

Outgoing:
1. 4.9
2. 4.1
